- Test system: P388 leukemia ip, CD2F1 mice, survival T/C
- experiment: NCI In Vivo Anticancer Drug Screen. Data for tumor model P388 Leukemia (intraperitoneal) in CD2F1 (CDF1) mice
- experimental_setup: endpoint: median survival time; dose: 50.0 mg/kg/injection; schedule: Q01DX005 (ip); vehicle: saline; higher = longer survival
- Method: The antitumor activity of compounds was measured in mice bearing transplantable tumors. Survival or tumor size were measured and the results are expressed as the measurement made in the treated group (T) divided by the measurement made in the vehicle treated control group (C). The tumor model used in this assay is P388 Leukemia (intraperitoneal) in CD2F1 (CDF1) mice
Inconclusive results and toxic doses are left out.
test_readout: T/C

Some compounds with known T/C results, for comparison:
>  <compound>
CCOC(=O)C1CCCCC12OCCO2 (stereo not drawn)

>  <test_readout>
T/C

>  <experimental_value>
95 % of control

$$$$
>  <compound>
CC(C)(C)OC(=O)NC(CCCCN)C(=O)O (stereo not drawn)

>  <test_readout>
T/C

>  <experimental_value>
103 % of control

$$$$
>  <compound>
CCCOC(=O)c1ccccc1OP(=O)(N(C)C)N(C)C

>  <test_readout>
T/C

>  <experimental_value>
93 % of control

$$$$
>  <compound>
Cc1cn(C2CC(O)C(CNC(=O)CCl)O2)c(=O)[nH]c1=O (stereo not drawn)

>  <test_readout>
T/C

>  <experimental_value>
105 % of control

$$$$
>  <compound>
C=C(CC(O)c1ccccc1)C(=O)Nc1ccccc1OC (stereo not drawn)

>  <test_readout>
T/C

>  <experimental_value>
98 % of control

$$$$
>  <compound>
CC(C)(C)N1CS[C@@H]2CCCC[C@H]21

>  <test_readout>
T/C

>  <experimental_value>
92 % of control

$$$$
>  <compound>
CCCCCCCCCCC1OCN2CCCCC12 (stereo not drawn)

>  <test_readout>
T/C

>  <experimental_value>
108 % of control

$$$$
>  <compound>
CC(CC(C)C)=NC(C)CC(C)C (stereo not drawn)

>  <test_readout>
T/C

>  <experimental_value>
97 % of control

$$$$
>  <compound>
OC1CCC(O)C1 (stereo not drawn)

>  <test_readout>
T/C

>  <experimental_value>
100 % of control

$$$$
>  <compound>
Cn1c2c(c3ccccc3c1=O)C(=O)c1cccnc1-2

>  <test_readout>
T/C

>  <experimental_value>
102 % of control

$$$$

Asked: Any idea what its T/C is? The compound is CCN(CC)CCCC(C)Nc1cc(-c2ccccc2)nc2cc(Cl)ccc12 (stereo not drawn)
Given back: 106 % of control

Asked: Any idea what its T/C is? The compound is O=C(O)CCCNC(=O)Cc1ccccc1
Given back: 93 % of control

Asked: Any idea what its T/C is? The compound is COC(=O)C1C(NC(C)(C)C)CCN1C(C)=O (stereo not drawn)
Given back: 89 % of control

###

- Test system: P388 leukemia ip, CD2F1 mice, survival T/C
- experiment: NCI In Vivo Anticancer Drug Screen. Data for tumor model P388 Leukemia (intraperitoneal) in CD2F1 (CDF1) mice
- experimental_setup: endpoint: median survival time; dose: 200.0 mg/kg/injection; schedule: Q04DX003 (ip); vehicle: saline with Tween-80; higher = longer survival
Inconclusive results and toxic doses are left out.
test_readout: T/C

Some compounds with known T/C results, for comparison:
>  <compound>
[O-]/[N+](=C\c1ccccc1)c1ccccc1

>  <T/C>
99 % of control

$$$$
>  <compound>
CCCCCCCCCCCCCCCCOc1ccccc1CNc1cc(Cl)ccc1Cl

>  <T/C>
100 % of control

$$$$
>  <compound>
Cc1ccc([N+](=O)[O-])cc1NC(=O)COc1cc(Cl)c(Cl)cc1Cl

>  <T/C>
90 % of control

$$$$
>  <compound>
O=C1OC(C(F)(F)F)=NC1Cc1ccccc1 (configuration not stated)

>  <T/C>
98 % of control

$$$$
>  <compound>
CS[C@@H]1C[C@H]2[C@@H]3CCC4=CC(=O)CC[C@]4(C)[C@H]3CC[C@]2(C)[C@H]1C(C)=O

>  <T/C>
90 % of control

$$$$
>  <compound>
COC(=O)C(C)NC(=O)Cc1ccccc1 (configuration not stated)

>  <T/C>
100 % of control

$$$$
>  <compound>
CCSC(=O)N1c2ccc(OC)cc2C=CC1C#N (configuration not stated)

>  <T/C>
118 % of control

$$$$
>  <compound>
Clc1ncnc2c1ncn2C1CCCCO1 (configuration not stated)

>  <T/C>
100 % of control

$$$$

Asked: Any idea what its T/C is? The compound is CC1OC(n2ccc(NC(=O)c3ccc(NC(=O)C(C)(N)CO)cc3)nc2=O)CCC1OC1OC(C)C(N(C)C)C(O)C1O (configuration not stated)
Given back: 100 % of control

Asked: Any idea what its T/C is? The compound is S=c1sscc1-c1ccc2ccccc2c1
Given back: 90 % of control

Asked: Any idea what its T/C is? The compound is CCCC(=O)Nc1ccc([N+](=O)[O-])cc1OC
Given back: 100 % of control

Asked: Any idea what its T/C is? The compound is O=S(=O)(Nc1ccc(O)cc1)c1ccccc1
Given back: 100 % of control
